Target: T1, extracellular domain of human CD73 protein (CD73-ECD), C-terminus polyhistidine-tagged (UniProt P21589 27-547)
T1 chain: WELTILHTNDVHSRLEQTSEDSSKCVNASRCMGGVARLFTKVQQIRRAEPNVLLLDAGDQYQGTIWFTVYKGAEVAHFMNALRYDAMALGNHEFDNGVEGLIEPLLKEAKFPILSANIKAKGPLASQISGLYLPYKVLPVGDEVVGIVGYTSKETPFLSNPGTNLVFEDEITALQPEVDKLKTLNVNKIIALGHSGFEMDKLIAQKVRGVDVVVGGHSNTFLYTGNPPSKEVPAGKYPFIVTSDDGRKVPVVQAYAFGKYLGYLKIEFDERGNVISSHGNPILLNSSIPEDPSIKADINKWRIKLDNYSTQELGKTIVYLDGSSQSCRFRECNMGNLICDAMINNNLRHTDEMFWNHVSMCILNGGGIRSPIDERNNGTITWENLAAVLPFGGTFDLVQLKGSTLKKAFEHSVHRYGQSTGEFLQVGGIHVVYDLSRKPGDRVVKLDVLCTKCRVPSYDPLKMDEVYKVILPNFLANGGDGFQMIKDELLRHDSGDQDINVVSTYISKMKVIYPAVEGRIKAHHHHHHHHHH
Test: ELISA
MEASURE: pEC50
By convention, pEC50 is the negative base-10 log of a molar concentration.

Example entries begin here.
Hu002c-10 (antibody, V domains shown) VH: QVQLVQSGAEVKKPGASVKVSCKASGYTLTSYWMHWVRQAPGQGLEWIGEINPSQGRSNYNEKFKSKVTLTVDRSTSTVYMELSSLRSEDTAVYYCARRGVSGNYFDYWGQGTLVTVSS VL: DIQMTQSPSSLSASVGDRVTITCKASQDINTYLSWFQQKPGKAPKSLIYRSNILVSGVPSRFSGSGSGQDYTLTISSLQPEDFATYYCLQYDEFPYTFGQGTKLEIK :: 10.03
Hu001c-15 (antibody, V domains shown) VH: QVQLVQSGAEVKKPGASVKVSCKTSGYTFTNYYIYWVRQAPGQRLEWMGWIYPGNLNIKYNEKFKGRVTITADTSASTAYMELSSLRSEDTAVYYCARDDNYAWFAYWGQGTLVTVSS VL: DIQMTQSPSSLSASVGDRVTITCKASQDVSTAVAWYQQKPGKSPKLLIYWTNTRHTGVPSRFSGSGSGTDHTLTISSLQPEDFATYYCQQHYSTPFTFGQGTKLEIK :: 9.94

Task: Return reported pEC50; argument: Hu001c-24 (antibody, V domains shown) VH: QVQLVQSGAEVKKPGASVKVSCKTSGYTFTNYYIYWVKQRPGQGLEWIGWIYPGNLNIKYNEKFKGRVTITADKSASTAYMELSSLRSEDTAVYYCARDDNYAWFAYWGQGTLVTVSS VL: DIQMTQSPSSLSASVGDRVTITCKASQDVSTAVAWYQQKPGKAPKLLIYWTNTRHTGVPSRFSGSGSGTDHTLTISSLQPEDFATYYCQQHYSTPFTFGQGTKLEIK
Output: 10.59

Just for reference, patent US20210024646A1 is where these values come from.
